- TESTED_ON: T1, recombinant human vascular endothelial growth factor (hVEGF) 121 (human, UniProt P15692 27-147)
- T1 construct: mature; also called human VEGF-A121; hVEGF 121 isoform
- T1 sequence (looked up): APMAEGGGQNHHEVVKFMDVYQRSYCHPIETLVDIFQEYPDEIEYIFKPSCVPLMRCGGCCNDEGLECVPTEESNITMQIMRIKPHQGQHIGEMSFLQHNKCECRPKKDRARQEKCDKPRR
- TEST_DETAILS: Fab-ELISA: Fab titrated on wells coated with 2 ug/mL hVEGF-121, detected with anti-kappa-light-chain-HRP; Kd estimated from EC50
MEASURED_PROPERTY: Kd

BINDER | MEASUREMENT
FF0124-6 (Fab, V domains shown, also called FF0124-6 F2094) VH: EVQLVESGGGLVQPGGSLRLSCAASGFDIYYYSMHWVRQAPGKGLEWVASISSYSGYTSYADSVKGRFTISADTSKNTAYLQMNSLRAEDTAVYYCARYPYYYWAFDYWGQGTLVTVSS VL: DIQMTQSPSSLSASVGDRVTITCRASQSVSSAVAWYQQKPGKAPKLLIYSASSLYSGVPSRFSGSRSGTDFTLTISSLQPEDFATYYCQQSGHYHYPFTFGQGTKVEIK | 25 nM
FF0124-7 (Fab, V domains shown, also called FF0124-7 F2116) VH: EVQLVESGGGLVQPGGSLRLSCAASGFDLYYSYMHWVRQAPGKGLEWVASISSYSGYTSYADSVKGRFTISADTSKNTAYLQMNSLRAEDTAVYYCARGFYYGGWYGIDYWGQGTLVTVSS VL: DIQMTQSPSSLSASVGDRVTITCRASQSVSSAVAWYQQKPGKAPKLLIYSASSLYSGVPSRFSGSRSGTDFTLTISSLQPEDFATYYCQQHYGPITFGQGTKVEIK | 33 nM
FF0124-4 (Fab, V domains shown, also called FF0124-4 F2088) VH: EVQLVESGGGLVQPGGSLRLSCAASGFDLYSYSIHWVRQAPGKGLEWVASIYSYSGYTYYADSVKGRFTISADTSKNTAYLQMNSLRAEDTAVYYCARGGWYALDYWGQGTLVTVSS VL: DIQMTQSPSSLSASVGDRVTITCRASQSVSSAVAWYQQKPGKAPKLLIYSASSLYSGVPSRFSGSRSGTDFTLTISSLQPEDFATYYCQQGYGPFYSLITFGQGTKVEIK | 11 nM
FF0124-2 (Fab, V domains shown, seventh Fab of the naive library selection; also called FF0124-2 F2083; FF0124 Fab # 2) VH: EVQLVESGGGLVQPGGSLRLSCAASGFDLYYSSMHWVRQAPGKGLEWVASISPSSSYTYYADSVKGRFTISADTSKNTAYLQMNSLRAEDTAVYYCARYYWWHSPFWAYSGLDYWGQGTLVTVSS VL: DIQMTQSPSSLSASVGDRVTITCRASQSVSSAVAWYQQKPGKAPKLLIYSASSLYSGVPSRFSGSRSGTDFTLTISSLQPEDFATYYCQQSGPLFTFGQGTKVEIK | 47 nM
